tested on: HIV1 d4T-Resistant; experiment: HIV1 in HeLa cells, d4T-resistant strain; assay type: cell-based, HIV-1; details: Table 4; read-out: EC50 HeLa HIV1 d4T-Resistant
Readout name: pEC50
Interpret pEC50 as the negative base-10 log of the concentration measured in mol/L.

The measured pEC50 associated with COC(=O)C(C)NP(=O)(OCC1C=CC(n2cc(C)c(=O)[nH]c2=O)O1)Oc1cccc(C(F)(F)F)c1 (centres unmarked) reads 7.30

# pEC50 (molecule: COC(=O)C(C)NP(=O)(OC[C@@H]1C=C[C@H](n2cc(C)c(=O)[nH]c2=O)O1)Oc1cc(Cl)cc(Cl)c1 (some centres unmarked) ) is 7.40

----------
tested on: HIV-1; experiment: microbe, parasite or virus in culture; settings: read-out: HIV1 CEM: EC50 for inhibition of HIV-1 in CEM cells; Table 6; mean of two or more repeat experiments
Counter-ions that a name gives are not always drawn.
Readout name: pEC50
Value format note: pEC50 is -log10 of concentration (mol/L); just state the number.

As a guide, the following entries are already answered.
Entry COC(=O)[C@H](C)NP(=O)(OC)OC[C@@H]1C=C[C@H](n2cc(C)c(=O)[nH]c2=O)O1 (stereo partly shown) , pEC50 reported as 4.70

Sure, the documented pEC50 for Cc1cn([C@H]2C=C[C@@H](COP(=O)(O)OC(=O)CCCN)O2)c(=O)[nH]c1=O [Compound 1224, phosphate ammonium salt] is 6.00

In plain terms, CCCCO[PH](=O)OCC1C=CC(n2cc(C)c(=O)[nH]c2=O)O1 (stereo not shown) has a documented pEC50 of 6.19

COC(=O)C[C@H](NP(=O)(OC[C@@H]1C=C[C@H](n2cc(C)c(=O)[nH]c2=O)O1)Oc1ccccc1)C(=O)OC (stereo partly shown) has a reported pEC50 of 6.22

Per the record, CCOC(=O)COP(=O)(OCC1C=CC(n2cc(C)c(=O)[nH]c2=O)O1)Oc1ccccc1 (stereo not shown) has pEC50 of 4.90

Next up:
Entry Cc1cn(C2C=CC(COP(=O)(NC(C)C(=O)OCc3ccccc3)Oc3ccccc3)O2)c(=O)[nH]c1=O (stereo not shown) , pEC50 reported as 7.80

----------
system: CEM cells; test: Toxicity to CEM cells; format: cell-based, human; settings: CEM cells
Entries and their CC50 values follow.

Sample records with CC50:
Lab note: measured CC50 of Cc1cn(C2CC(N=[N+]=[N-])C(COP(=O)(O)NC(C)C(=O)O)O2)c(=O)[nH]c1=O (stereo not drawn) [Cpd 1071] was > 250 µM

Notebook: CCCCCCOP(=O)(OCCC#N)OCC1OC(n2cc(C)c(=O)[nH]c2=O)CC1N=[N+]=[N-] (stereo not drawn) [Cpd 856] , CC50 read as > 250 µM

Sure, the documented CC50 for COC(=O)C(C)NP(=O)(OC[C@@H]1CC[C@H](n2cnc3c(N)ncnc32)O1)Oc1ccccc1 (stereo partly drawn) [Compound 1093] is 2.57 µM

Others:
Short answer for Cc1cn(C2CC(N=[N+]=[N-])C(COP(=O)(O)OCC(F)(F)F)O2)c(=O)[nH]c1=O (stereo not drawn) [Cpd 855] : CC50 was > 250 µM

The recorded CC50 for entry Nc1ncnc2c1ncn2C1CCC(CO)O1 (stereo not drawn) [Cpd 1069] equals > 250 µM

Reported CC50 for Cc1cn(C2CC(N=[N+]=[N-])C(COP(=O)(OCCC#N)OCC(F)(F)F)O2)c(=O)[nH]c1=O (stereo not drawn) [Cpd 847] was > 250 µM

----------
test system: CEM cells; experiment: Toxicity to CEM cells; type: cell-based, human; conditions: Table 6; mean of two or more repeat experiments
Readout name: CC50 (µM)
// note: answer is a bare numeric in µM

Record COC(=O)C(OP(=O)(OCC1C=CC(n2cc(C)c(=O)[nH]c2=O)O1)Oc1ccccc1)c1ccccc1 (stereo not shown) [Compound 982] , field CC50: 94

Kindly note the recorded CC50 for Cc1cn(C2C=CC(COP(=O)(Oc3ccc(Br)cc3Br)N(C)C(C)C(=O)O)O2)c(=O)[nH]c1=O (stereo not shown) [Compound 776] , which is 16

Shifting focus to the compound that follows.
Quick note, CC50 for CCc1ccc(OP(=O)(N[C@@H](C)C(=O)OC)OCC2C=CC(n3cc(C)c(=O)[nH]c3=O)O2)cc1 (stereo partly shown) [Compound 323] landed at 60

----------
system: HIV-1; experiment: microbe, parasite or virus in culture; settings: read-out: HIV1 CEM: EC50 for inhibition of HIV-1 in CEM cells; Table 6; mean of two or more repeat experiments
Readout name: EC50 (µM)
Just the number in µM, nothing appended.

Kindly note: HIV-1, Cc1cn([C@H]2C=C[C@@H](COP(=O)(NC(Cc3ccccc3)C(=O)OC(C)(C)C)Oc3ccccc3)O2)c(=O)[nH]c1=O (stereo partly shown) [Compound 878] , EC50 value reported: 2

EC50 value, target or system HIV-1, for COC(=O)C(CCSC)NP(=O)(OCC1C=CC(n2cc(C)c(=O)[nH]c2=O)O1)OCC(Cl)(Cl)Cl (stereo not shown) [Compound 345] : 8

// compound CO[PH](=O)OCC1C=CC(n2cc(C)c(=O)[nH]c2=O)O1 (stereo not shown) [Compound 817] , assay HIV-1, EC50 value: 0.7

With HIV-1 as the test system, CCCCNP(=O)(OCC1C=CC(n2cc(C)c(=O)[nH]c2=O)O1)OCC(F)(F)F (stereo not shown) [Compound 504] showed EC50 of 73

----------
// EC50 lookup, one value per entry
tested on: HIV-1; assay: microbe, parasite or virus in culture; settings: read-out: HIV1 CEM: EC50 for inhibition of HIV-1 in CEM cells; Table 6; mean of two or more repeat experiments
Numeric answer only, unit µM assumed.

Reported EC50 of Cc1cn(C2C=CC(COP(=O)(NC(C)C(=O)OCc3ccccc3)Oc3ccc(Br)cc3Br)O2)c(=O)[nH]c1=O (stereo not shown) : 0.2

compound COC(=O)C(C)NP(=O)(OC[C@@H]1C=C[C@H](n2cc(C)c(=O)[nH]c2=O)O1)Oc1cc(Cl)cc(Cl)c1 (stereo partly shown) , EC50 observed: 0.12

Briefly, EC50 measured for CCCCCCCCO[PH](=O)OCC1C=CC(n2cc(C)c(=O)[nH]c2=O)O1 (stereo not shown) : 0.4

Okay, next one:
The reported EC50 of the compound COP(=O)(NC(C)C(=O)OCc1ccccc1)OCC1C=CC(n2cc(C)c(=O)[nH]c2=O)O1 (stereo not shown) was 10

----------
Test system: HIV-2
Test: Inhibition of HIV-2 in CEM/TK- cells
Format: cell-based
Conditions: Table 4; read-out: EC50 CEM TK− HIV2
Protocol: Cells were infected with HIV-1 as previously described [Balzarini et al. AIDS (1991), 5, 21–28]. Briefly, 5×10^5 cells per milliliter were infected with HIV-1 or HIV-2 at 100 CCID50 (50% cell culture infective dose) per milliliter of cell suspension. […] After 4 days giant cell formation was recorded microscopically in the HIV-infected cell cultures [CEM], and after 5 days the number of viable cells was determined by trypan blue staining of the HIV-infected cell cultures [MT4]. […]
Readout name: pEC50
Give only the number. pEC50 is defined as minus log10 of concentration in molar units.

COC(=O)C(C)NP(=O)(OC[C@@H]1C=C[C@H](n2cc(C)c(=O)[nH]c2=O)O1)Oc1cc(Cl)cc(Cl)c1 (some centres unmarked) yielded pEC50 of 7.22

More entries:
get_value(item= COC(=O)C(C)NP(=O)(OCC1C=CC(n2cc(C)c(=O)[nH]c2=O)O1)Oc1cccc(C(F)(F)F)c1 (centres unmarked) , readout=pEC50) returns 7.22

----------
test system: HIV-1; experiment: microbe, parasite or virus in culture; settings: read-out: HIV1 CEM: EC50 for inhibition of HIV-1 in CEM cells; Table 6; mean of two or more repeat experiments
pEC50: −log10 of the molar value.
Give TRUE when the value for pEC50 is at least 7. Give FALSE when it is less.

Solved entries (count: 4):
Q. Does the reported pEC50 for COC(=O)CCC(NP(=O)(OCC1C=CC(n2cc(C)c(=O)[nH]c2=O)O1)Oc1ccccc1)C(=O)OC (stereo not shown) [Compound 1081] fall at or above the 7 mark?
A. FALSE

Q. Evaluate COC(=O)C(CCSC)NP(=O)(OCC1C=CC(n2cc(C)c(=O)[nH]c2=O)O1)Oc1ccccc1 (stereo not shown) : pEC50 at minimum 7?
A. FALSE

Q. // inclusive: pEC50 at least 7? input: COC(=O)CCNP(=O)(OCC1C=CC(n2cc(C)c(=O)[nH]c2=O)O1)Oc1ccccc1 (stereo not shown)
A. FALSE

Q. Reported pEC50 at or above 7? Cc1cn(C2C=CC(COP(=O)(Oc3ccc(Br)cc3Br)N(C)C(C)C(=O)O)O2)c(=O)[nH]c1=O (stereo not shown)
A. TRUE

Continuing:
Q. Entry CCOC(=O)CCNP(=O)(OCC1C=CC(n2cc(C)c(=O)[nH]c2=O)O1)Oc1ccccc1 (stereo not shown) : is its pEC50 no less than 7?
A. FALSE

Q. Would you say COC(=O)C(Cc1ccccc1)NP(=O)(OCC1C=CC(n2cc(C)c(=O)[nH]c2=O)O1)OCC(Cl)(Cl)Cl (stereo not shown) shows pEC50 at minimum 7?
A. FALSE

The reported numbers originate from patent US7018989B2.
